What self-cleavage was measured for each of the following?
B1: LINE1-full (parent)
chain: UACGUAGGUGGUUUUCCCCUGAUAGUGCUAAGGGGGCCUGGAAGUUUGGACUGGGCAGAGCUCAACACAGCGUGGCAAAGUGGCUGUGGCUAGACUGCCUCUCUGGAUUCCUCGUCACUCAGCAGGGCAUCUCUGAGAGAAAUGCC

variants of: B1; assay: self-cleavage, relative activity (ratio to wild type); higher = more cleavage; in vitro, sequencing; the parent is a self-cleaving ribozyme

As a guide, the following entries are already answered.
> print(dat)
   mutation.descriptor  obs.value
1           C68G U134G       0.04
2          U132C U143A       1.35
3           C71U U130C          1

// for each variant in input: emit self-cleavage
1. U73A G83A
2. G106U G126A
3. A30G A57U
4. A2C U14A
5. A22U U39C
6. G55A U96C
7. G89U A124G
8. U29C A142C

A.
0.53
1.15
0.27
1.16
1.2
0.04
0.16
1.06
